# protocolNotes: Phase I open-label single-dose crossover oral bioavailability / PK test of bedoradrine sulfate in healthy volunteers
# Format: in vivo, human
# experimentalContext: human two, in vivo, po, 600 ug, AUC 0-24 h, individual subject
# Procedure: The test was an open-label, randomized, crossover, single dose test of 600 μg (0.6 mg) bedoradrine sulfate in liquid form administered orally and of 300 μg (0.3 mg) bedoradrine sulfate administered by i.v. infusion. […] The limit of quantitation (LLOQ) for these methods was 30.3 picogram (pg)/mL. […] All plasma concentrations below the limit of quantitation (BLQ) values occurring at predose and up to the first measurable concentration may otherwise be imputed as 1 pg/mL in some analyses or LLOQ. […]
Where a name gives a salt, the structure may show the parent alone.
reportedProperty: AUC(0-t) (ng·h/mL)
Please give a number only; it is taken to be in ng·h/mL.

Ask | So what does the record say about AUC(0-t) for CN(C)C(=O)COc1ccc2c(c1)C[C@@H](NC[C@H](O)c1ccc(O)c(CCO)c1)CC2 [MN-221, bedoradrine sulfate] ?
Reply | 1.05

###

# protocolNotes: Phase I open-label single-dose crossover oral bioavailability / PK test of bedoradrine sulfate in healthy volunteers
# Type: in vivo, human
# experimentalContext: both sexes, human, in vivo, po, 600 ug, AUC 0-24 h, mean
# Description: The test was an open-label, randomized, crossover, single dose test of 600 μg (0.6 mg) bedoradrine sulfate in liquid form administered orally and of 300 μg (0.3 mg) bedoradrine sulfate administered by i.v. infusion. […] The limit of quantitation (LLOQ) for these methods was 30.3 picogram (pg)/mL. […] All plasma concentrations below the limit of quantitation (BLQ) values occurring at predose and up to the first measurable concentration may otherwise be imputed as 1 pg/mL in some analyses or LLOQ. […]
Counter-ions that a name gives are not always drawn.
reportedProperty: AUC(0-t)
Give me the value, and tack the unit on after it.

Ask | So what does the record say about AUC(0-t) for CN(C)C(=O)COc1ccc2c(c1)C[C@@H](NC[C@H](O)c1ccc(O)c(CCO)c1)CC2 [MN-221, bedoradrine sulfate] ?
Reply | 1.94 ng·h/mL

###

# protocolNotes: Phase I open-label single-dose crossover oral bioavailability / PK test of bedoradrine sulfate in healthy volunteers
# Type: in vivo, human
# experimentalContext: both sexes, human, in vivo, po, 600 ug, Tmax, range
Counter-ions that a name gives are not always drawn.
reportedProperty: Tmax

Ask | So what does the record say about Tmax for CN(C)C(=O)COc1ccc2c(c1)C[C@@H](NC[C@H](O)c1ccc(O)c(CCO)c1)CC2 [MN-221, bedoradrine sulfate] ?
Reply | 0.25 to 2 h

###

# protocolNotes: Phase I open-label single-dose crossover oral bioavailability / PK test of bedoradrine sulfate in healthy volunteers
# Assay type: in vivo, human
# experimentalContext: female, human, in vivo, iv, 300 ug, Cmax mean
Structures can show the parent of a compound that is named as a salt.
reportedProperty: Cmax (ng/mL)
Please give a number only; it is taken to be in ng/mL.

Ask | So what does the record say about Cmax for CN(C)C(=O)COc1ccc2c(c1)C[C@@H](NC[C@H](O)c1ccc(O)c(CCO)c1)CC2 [MN-221, bedoradrine sulfate] ?
Reply | 13.1

###

# protocolNotes: Phase I open-label single-dose crossover oral bioavailability / PK test of bedoradrine sulfate in healthy volunteers
# Type: in vivo, human
# experimentalContext: human one, in vivo, po, 600 ug, AUC 0-24 h, individual subject
Counter-ions that a name gives are not always drawn.
reportedProperty: AUC(0-t)
Give me the value, and tack the unit on after it.

Ask | So what does the record say about AUC(0-t) for CN(C)C(=O)COc1ccc2c(c1)C[C@@H](NC[C@H](O)c1ccc(O)c(CCO)c1)CC2 [MN-221, bedoradrine sulfate] ?
Reply | 2.14 ng·h/mL
